Data credit: ChEMBL document CHEMBL4270553

Test system: MOLT-4
Assay: Antiproliferative activity against human MOLT4 cells assessed as growth inhibition at 10 uM after 48 hrs by sulforhodamine B assay relative to control
Assay type: functional
Details: MOLT-4, 48 h, read-out: GI
Field: class. Source value: inhibition of growth at 10 µM. Ranges: group 1 = under 10%, group 2 = from 10% up to 30%, group 3 = 30% and over

Please report the category associated with CCOC(=O)C1=C(CSC(=S)N2CCN(c3ccccc3)CC2)N(C)C(=O)NC1c1ccccc1 (configuration not stated) , nothing else.
group 2

Which bin, given its inhibition of growth at 10 µM, does CCOC(=O)C1=C(Cn2cc(CO)nn2)N(C)C(=O)NC1c1ccccc1 (configuration not stated) occupy?
group 2

State the class of the compound shown: CCOC(=O)C1=C(CSc2nc3ccccc3[nH]2)N(C)C(=O)NC1c1ccccc1 (configuration not stated)
group 2

Would you mind sorting CCOC(=O)C1=C(CSc2nnnn2-c2ccccc2)N(C)C(=O)NC1c1ccccc1 (configuration not stated) into the appropriate category?
group 2

Sort CCOC(=O)C1=C(CSC(=S)N2CCN(c3ccc(OC)cc3)CC2)N(C)C(=O)NC1c1ccccc1 (configuration not stated) into one of the categories.
group 3

Which of the defined bands does the recorded inhibition of growth at 10 µM of CCOC(=O)C1=C(CSC(=S)N(C2CCCCC2)C2CCCCC2)N(C)C(=O)NC1c1ccccc1 (configuration not stated) sit within?
group 3

Sort into band: CCOC(=O)C1=C(CSc2nnc(-c3ccccc3)o2)N(C)C(=O)NC1c1ccccc1 (configuration not stated)
group 2

Hi, small favor: classify CCOC(=O)C1=C(CN(C2CCCCC2)C2CCCCC2)N(C)C(=O)NC1c1ccccc1 (configuration not stated) by its inhibition of growth at 10 µM when you get a moment.
group 3

The entry to classify is CCOC(=O)C1=C(CSC(=S)N2CCOCC2)N(C)C(=O)NC1c1ccccc1 (configuration not stated) ; which class holds it?
group 1

Could you place CCOC(=O)C1=C(CN2CCCC2)N(C)C(=O)NC1c1ccccc1 (configuration not stated) in its proper category? Many thanks.
group 1

Which band does CCOC(=O)C1=C(CSC2=NCCS2)N(C)C(=O)NC1c1ccccc1 (configuration not stated) fall in?
group 2

* * *

System: SR
Assay: Antiproliferative activity against human SR cells assessed as growth inhibition at 10 uM after 48 hrs by sulforhodamine B assay relative to control
Type: functional
Conditions: read-out: GI
Would you mind telling me the reported inhibition of growth at 10 µM of each entry?
Note: unit % is implicit; provide only the numeric part.

Entry under test: CCOC(=O)C1=C(CN2CCCC2)N(C)C(=O)NC1c1ccccc1 (stereo not given) . Its inhibition of growth at 10 µM was 10

Lab book: inhibition of growth at 10 µM of CCOC(=O)C1=C(CSc2nc3ccccc3[nH]2)N(C)C(=O)NC1c1ccccc1 (stereo not given) noted as 1

The reported value for CCOC(=O)C1=C(CN(C2CCCCC2)C2CCCCC2)N(C)C(=O)NC1c1ccccc1 (stereo not given) in terms of inhibition of growth at 10 µM is 20

CCOC(=O)C1=C(CSC(=S)N2CCN(c3ccc(OC)cc3)CC2)N(C)C(=O)NC1c1ccccc1 (stereo not given) yielded inhibition of growth at 10 µM of 63

Per the records, this compound ( CCOC(=O)C1=C(CSC(=S)N(C2CCCCC2)C2CCCCC2)N(C)C(=O)NC1c1ccccc1 (stereo not given) ) has inhibition of growth at 10 µM equal to 71

* * *

System: A549
Assay: Antiproliferative activity against human A549/ATCC cells assessed as growth inhibition at 10 uM after 48 hrs by sulforhodamine B assay relative to control
Type: functional
Settings: A549, 48 h, read-out: GI
MEASURED ATTRIBUTE: inhibition of growth at 10 µM (%)
Answer in %, number only, no unit symbol.

What the record says about CCOC(=O)C1=C(CN(C2CCCCC2)C2CCCCC2)N(C)C(=O)NC1c1ccccc1 (stereo not drawn) : inhibition of growth at 10 µM is 33

Record CCOC(=O)C1=C(CSC(=S)N2CCN(c3ccc(OC)cc3)CC2)N(C)C(=O)NC1c1ccccc1 (stereo not drawn) . Reported inhibition of growth at 10 µM: 33

inhibition of growth at 10 µM recorded for this compound, CCOC(=O)C1=C(CSC(=S)N2CCCCC2)N(C)C(=O)NC1c1ccccc1 (stereo not drawn) , is 29

* * *

System: A549
Assay: Antiproliferative activity against human A549/ATCC cells assessed as growth inhibition at 10 uM after 48 hrs by sulforhodamine B assay relative to control
Format: functional
Conditions: A549, 48 h, read-out: GI
MEASURED ATTRIBUTE: inhibition of growth at 10 µM (%)
Supply the numeric figure in %, leaving out any unit text.

# inhibition of growth at 10 µM measured on A549 for item CCOC(=O)C1=C(CSC(=S)N(C2CCCCC2)C2CCCCC2)N(C)C(=O)NC1c1ccccc1 (stereo not given) = 53

CCOC(=O)C1=C(CSc2nnc(-c3ccccc3)o2)N(C)C(=O)NC1c1ccccc1 (stereo not given) tested on A549 gave inhibition of growth at 10 µM: 5

Entry CCOC(=O)C1=C(CSC2=NCCS2)N(C)C(=O)NC1c1ccccc1 (stereo not given) , tested on A549, has a reported inhibition of growth at 10 µM of 16

Entry CCOC(=O)C1=C(CSC(=S)N2CCN(c3ccccc3)CC2)N(C)C(=O)NC1c1ccccc1 (stereo not given) ; assay system A549; inhibition of growth at 10 µM recorded at 27

Record CCOC(=O)C1=C(CSC(=S)N2CCOCC2)N(C)C(=O)NC1c1ccccc1 (stereo not given) / A549, inhibition of growth at 10 µM recorded as 4

* * *

Tested on: LOX IMVI
Assay: Antiproliferative activity against human LOXIMVI cells assessed as growth inhibition at 10 uM after 48 hrs by sulforhodamine B assay relative to control
Assay type: functional
Conditions: read-out: GI
MEASURED ATTRIBUTE: inhibition of growth at 10 µM (%)
Give just the numeric value; % need not be written.

Input CCOC(=O)C1=C(CSc2nc3ccccc3[nH]2)N(C)C(=O)NC1c1ccccc1 (configuration not stated) . Output inhibition of growth at 10 µM: 11

Record summary for CCOC(=O)C1=C(CN(C2CCCCC2)C2CCCCC2)N(C)C(=O)NC1c1ccccc1 (configuration not stated) : reported inhibition of growth at 10 µM = 13

Record CCOC(=O)C1=C(CSC(=S)N2CCOCC2)N(C)C(=O)NC1c1ccccc1 (configuration not stated) . Reported inhibition of growth at 10 µM: 12

The reported value for CCOC(=O)C1=C(CSC(=S)N2CCN(c3ccc(OC)cc3)CC2)N(C)C(=O)NC1c1ccccc1 (configuration not stated) in terms of inhibition of growth at 10 µM is 33

Lookup result for CCOC(=O)C1=C(CSC(=S)N2CCCCC2)N(C)C(=O)NC1c1ccccc1 (configuration not stated) ; measured inhibition of growth at 10 µM: 11

Query CCOC(=O)C1=C(CSC(=S)N(C2CCCCC2)C2CCCCC2)N(C)C(=O)NC1c1ccccc1 (configuration not stated) yields inhibition of growth at 10 µM of 67

Short answer for CCOC(=O)C1=C(CSc2nnnn2-c2ccccc2)N(C)C(=O)NC1c1ccccc1 (configuration not stated) : inhibition of growth at 10 µM was 14

# compound CCOC(=O)C1=C(CSC2=NCCS2)N(C)C(=O)NC1c1ccccc1 (configuration not stated) ; its inhibition of growth at 10 µM = 16

Reported inhibition of growth at 10 µM for CCOC(=O)C1=C(CN2CCCC2)N(C)C(=O)NC1c1ccccc1 (configuration not stated) was 8

# inhibition of growth at 10 µM (compound: CCOC(=O)C1=C(CSc2nnc(-c3ccccc3)o2)N(C)C(=O)NC1c1ccccc1 (configuration not stated) ) is 27

For CCOC(=O)C1=C(Cn2cc(CO)nn2)N(C)C(=O)NC1c1ccccc1 (configuration not stated) the compound record lists inhibition of growth at 10 µM as 7

Kindly note the recorded inhibition of growth at 10 µM for CCOC(=O)C1=C(CSC(=S)N2CCN(c3ccccc3)CC2)N(C)C(=O)NC1c1ccccc1 (configuration not stated) , which is 13

* * *

Would you kindly list IC50 for each of these compounds?
System: PC-3
Test: cells
Details: Homo sapiens, PC-3, 24 h
Description: Cytotoxicity against human PC3 cells after 24 hrs by MTT assay
# number only, unit µM dropped from output

According to the records, this compound CCOC(=O)C1=C(CSc2nc3cc([N+](=O)[O-])ccc3[nH]2)N(C)C(=O)NC1c1ccccc1 (stereo not given) displays IC50 of 9.18

Notebook: CCOC(=O)C1=C(C)Nc2nc3ccccc3n2C1c1c(O)ccc2ccccc12 (stereo not given) , IC50 read as 37

Per the records, this compound ( CCOC(=O)C1=C(CSC(=S)N2CCN(c3ccccc3OCC)CC2)N(C)C(=O)NC1c1ccccc1 (stereo not given) ) has IC50 equal to 72.3

Measured IC50 of CCOC(=O)C1=C(CSc2nc3cc(C)ccc3[nH]2)N(C)C(=O)NC1c1ccccc1 (stereo not given) : 22.3

Kindly note the recorded IC50 for CCOC(=O)C1=C(CSc2nnc(-c3ccc(C)cc3)o2)N(C)C(=O)NC1c1ccccc1 (stereo not given) , which is 61.8
